# TARGET ENTITY: HIV-1 reverse transcriptase (HIV-RT enzyme) (Human immunodeficiency virus type 1 group M subtype B)
# TEST NAME: HIV-1 Reverse Transcriptase Assay Inhibitor IC50 Determination (RNA-dependent DNA polymerase activity, SPA)
# Type: biochemical
PROPERTY LABEL: IC50 (nM)

[[record]]
molecule = "Cc1cc(C#N)cc(C)c1Oc1ccnc(NC2CCN(Cc3ccc(S(C)(=O)=O)cc3)CC2)n1 [I-3]"
property_label = "IC50"
obs_value = 34.1

[[record]]
molecule = "Cc1cc(C#N)cc(C)c1Nc1ccnc(NC2CCN(Cc3ccc(S(C)(=O)=O)cc3Cl)CC2)n1 [III-1]"
property_label = "IC50"
obs_value = 25.7

[[record]]
molecule = "Cc1cc(C#N)cc(C)c1Oc1ccnc(NC2CCN(c3cccc(S(N)(=O)=O)c3)CC2)n1 [IV-3]"
property_label = "IC50"
obs_value = 14.7

[[record]]
molecule = "Cc1cc(C#N)cc(Cl)c1Oc1nc(NC2CCN(c3cccc(C(N)=O)c3)CC2)ncc1Br [IV-13]"
property_label = "IC50"
obs_value = 27.9

[[record]]
molecule = "Cc1cc(C#N)cc(C)c1Nc1nc(NC2CCN(c3cccc(C(N)=O)c3)CC2)ncc1Br [V-5]"
property_label = "IC50"
obs_value = 28.1


* * *

# Test system: wild-type laboratory strain HIV-1HXB2
# TEST NAME: Recombinant HIV-1 Antiviral Assay (MTT cell viability assay with MT-4 cells)
# Type: cell-based
# CONDITIONS: Human immunodeficiency virus 1, MT4, 120 h; MT-4 cells infected with HIV-1HXB2, MTT readout after 5 days; read-out: Antiviral Activity IC50
# Procedure: Recombinant HIV-1 Antiviral Assay The sensitivity of a wild-type laboratory strain HIV-1HXB2 to described compounds was determined by the 3-[4,5-dimethylthiazol-2yl]-2,5-diphenyltetrazolium bromide (MTT) cell viability assay with MT-4 cells (R. Pauwels et al., “Rapid and automated tetrazolium-based colorimetric assay for the detection of anti-HIV compounds,” J. Virological Methods 1988 20:309-321). […] The absorbance was measured at 540 nm and the TCID50 determined by Spearman-Karber method.
pIC50: −log10 of the molar value.
Returns condition met if the recorded pIC50 is greater than or equal to 9, and condition not met otherwise.

[[record]]
smiles_str = "Cc1cc(C#N)cc(C)c1Oc1ccnc(NC2CCN(Cc3ccc(S(C)(=O)=O)cc3)CC2)n1"
discrete_label = "condition not met"

[[record]]
smiles_str = "Cc1cc(C#N)cc(C)c1Nc1ccnc(NC2CCN(Cc3ccc(S(C)(=O)=O)cc3Cl)CC2)n1"
discrete_label = "condition not met"

[[record]]
smiles_str = "Cc1cc(C#N)cc(Cl)c1Oc1nc(NC2CCN(c3cccc(C(N)=O)c3)CC2)ncc1Br"
discrete_label = "condition not met"

[[record]]
smiles_str = "Cc1cc(C#N)cc(C)c1Oc1ccnc(NC2CCN(c3cccc(S(N)(=O)=O)c3)CC2)n1"
discrete_label = "condition met"

